Reference source for all entries: patent US9637484B2

assay: Pharmacokinetics assay in SD rats, intragastric administration, plasma by LC/MS/MS; assay type: in vivo, Sprague-Dawley (SD) rats; details: both sexes, Sprague-Dawley, rat, plasma, po, 3.0 mg/kg, read-out: Area Under Curve AUC
Some compounds, each annotated with its measured AUC.

INPUT SMILES: O=C(O)C1(Sc2ccnc3ccc(C(F)(F)F)cc23)CCC1
AUC: 38200 ng·h/mL
--
INPUT SMILES: O=C(O)C1(Sc2ccnc3ccccc23)CCC1
AUC: 20700 ng·h/mL
--
INPUT SMILES: O=C(O)C1(Sc2ccnc3ccc(Br)cc23)CCC1
AUC: 28400 ng·h/mL

---

target: hURAT1 (Homo sapiens (Human), UniProt Q96S37); experiment: Assay for inhibiting URAT1: uptake of 14C-uric acid in HEK293/hURAT1 cells; settings: 14C-uric acid 11.57 μM, 12 minutes at room temperature
Sequence (Q96S37 whole entry): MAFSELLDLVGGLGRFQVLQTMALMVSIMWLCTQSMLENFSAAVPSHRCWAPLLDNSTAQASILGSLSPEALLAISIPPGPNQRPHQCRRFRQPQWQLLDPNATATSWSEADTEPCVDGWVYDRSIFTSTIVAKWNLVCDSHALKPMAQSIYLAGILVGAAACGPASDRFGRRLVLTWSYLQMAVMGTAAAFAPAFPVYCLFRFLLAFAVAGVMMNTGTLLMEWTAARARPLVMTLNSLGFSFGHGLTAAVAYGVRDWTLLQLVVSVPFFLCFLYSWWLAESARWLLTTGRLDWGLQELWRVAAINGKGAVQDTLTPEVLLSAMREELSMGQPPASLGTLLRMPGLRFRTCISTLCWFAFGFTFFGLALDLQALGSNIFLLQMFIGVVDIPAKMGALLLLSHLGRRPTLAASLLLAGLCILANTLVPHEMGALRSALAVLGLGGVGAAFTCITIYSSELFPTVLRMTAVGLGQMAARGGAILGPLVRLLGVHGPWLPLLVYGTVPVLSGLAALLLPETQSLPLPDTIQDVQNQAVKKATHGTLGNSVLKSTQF
pIC50: −log10 of the molar value.
// pIC50 lookup, one value per entry
OBSERVATION TYPE: pIC50

INPUT SMILES: COC(=O)COc1ccc2nccc(SC3(C(=O)O)CCC3)c2c1
OBSERVATION TYPE: pIC50
RECORDED MEASUREMENT: 6.79
--
INPUT SMILES: O=C(O)C1(Sc2ccnc3ccc(C(F)(F)F)cc23)CCC1
OBSERVATION TYPE: pIC50
RECORDED MEASUREMENT: 7.21
--
INPUT SMILES: O=C(O)C1(Sc2ccnc3ccc(Br)cc23)CC1
OBSERVATION TYPE: pIC50
RECORDED MEASUREMENT: 6.49
--
INPUT SMILES: N#CCOc1ccc2nccc(SC3(C(=O)O)CCC3)c2c1
OBSERVATION TYPE: pIC50
RECORDED MEASUREMENT: 6.17
--
INPUT SMILES: O=C(O)C1(Sc2ccnc3ccc(Br)cc23)CCCC1
OBSERVATION TYPE: pIC50
RECORDED MEASUREMENT: 6.45
--
INPUT SMILES: O=C(O)C1(Sc2ccnc3ccc(-c4cccc(C(F)(F)F)c4)cc23)CCC1
OBSERVATION TYPE: pIC50
RECORDED MEASUREMENT: 6.44
--
INPUT SMILES: O=C(O)C1(Sc2ccnc3ccc(C4CC4)cc23)CCC1
OBSERVATION TYPE: pIC50
RECORDED MEASUREMENT: 6.18
--
INPUT SMILES: N#Cc1ccc2nccc(SC3(C(=O)O)CCC3)c2c1
OBSERVATION TYPE: pIC50
RECORDED MEASUREMENT: 6.40
--
INPUT SMILES: O=C(O)C1(Sc2ccnc3ccc(F)cc23)CCC1
OBSERVATION TYPE: pIC50
RECORDED MEASUREMENT: 6.25
--
INPUT SMILES: O=C(O)C1(Sc2ccnc3ccccc23)CCC1
OBSERVATION TYPE: pIC50
RECORDED MEASUREMENT: 6.60
--
INPUT SMILES: COCCOc1ccc2nccc(SC3(C(=O)O)CCC3)c2c1
OBSERVATION TYPE: pIC50
RECORDED MEASUREMENT: 6.68
--
INPUT SMILES: COCc1ccc2nccc(SC3(C(=O)O)CCC3)c2c1
OBSERVATION TYPE: pIC50
RECORDED MEASUREMENT: 6.71
--
INPUT SMILES: COc1ccc2nccc(SC3(C(=O)O)CCC3)c2c1
OBSERVATION TYPE: pIC50
RECORDED MEASUREMENT: 6.46
--
INPUT SMILES: O=C(O)C1(Sc2ccnc3cc(Br)ccc23)CCC1
OBSERVATION TYPE: pIC50
RECORDED MEASUREMENT: 6.89
